# experimental.target: Chk1 (Homo sapiens, UniProt O14757)
# Sequence (O14757 1-476): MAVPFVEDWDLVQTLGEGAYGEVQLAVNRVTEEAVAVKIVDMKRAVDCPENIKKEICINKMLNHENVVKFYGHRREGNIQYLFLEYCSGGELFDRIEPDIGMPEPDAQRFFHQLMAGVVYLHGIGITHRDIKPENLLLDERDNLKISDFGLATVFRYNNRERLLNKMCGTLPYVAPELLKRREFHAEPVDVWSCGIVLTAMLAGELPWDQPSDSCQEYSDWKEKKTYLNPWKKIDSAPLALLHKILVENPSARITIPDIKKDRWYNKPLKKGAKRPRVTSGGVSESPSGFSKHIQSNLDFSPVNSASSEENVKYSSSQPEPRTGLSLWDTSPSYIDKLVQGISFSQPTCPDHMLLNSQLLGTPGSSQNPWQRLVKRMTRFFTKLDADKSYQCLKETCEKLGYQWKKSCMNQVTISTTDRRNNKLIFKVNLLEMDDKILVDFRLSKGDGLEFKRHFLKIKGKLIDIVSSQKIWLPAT
# experiment.notes: Chk1 kinase assay, phosphorylation of Chktide (33P-ATP filtration)
# Format: biochemical
pIC50: −log10 of the molar value.
measure.name: pIC50

Query: Need pIC50, item Brc1cccc(-c2cc(NCc3ccncc3)n3ncnc3n2)c1
Reply: < 3.70

---

# experimental.target: CDK2 enzyme, complexed with cyclin A (Homo sapiens, UniProt P24941)
# experiment.notes: CDK2 cyclin dependent kinase assay, phosphorylation of synthetic peptide […] (33P-ATP filtration)
# Format: biochemical
# run.parameters: Table 2; 0.1 mM ATP
# Method: The assay mixture containing the inhibitor and CDK2 enzyme, complexed with cyclin A (0.4 U/ml) was mixed together in a microtiter plate in a final volume of 50 μl and incubated for 40 min at 30° C. […] The filtration plate was dried for 10 min at 65° C., scintillant added and phosphorylated peptide quantified in a scintillation counter (Trilux, PerkinElmer). […]
measure.name: IC50 (µM)
Numbers only, in µM.

[[record]]
structure_as_smiles = "CCN(c1cc(Nc2ccc(S(C)(=O)=O)cc2)n2ncnc2n1)C(C)C"
experimental_target = "CDK2 enzyme, complexed with cyclin A (Homo sapiens, UniProt P24941)"
measure_name = "IC50"
reported = 0.86

[[record]]
structure_as_smiles = "CCOc1cc(Nc2ccc(S(N)(=O)=O)cc2)n2ncnc2n1"
experimental_target = "CDK2 enzyme, complexed with cyclin A (Homo sapiens, UniProt P24941)"
measure_name = "IC50"
reported = 13

[[record]]
structure_as_smiles = "CCN(CC)c1cc(Nc2ccc(S(=O)(=O)N3CCC(O)CC3)cc2)n2ncnc2n1"
experimental_target = "CDK2 enzyme, complexed with cyclin A (Homo sapiens, UniProt P24941)"
measure_name = "IC50"
reported = 0.38


In the following, a different compound is considered.
Query: Need IC50, item CS(=O)(=O)c1ccc(Nc2cc(NC3CCCC3)nc3ncnn23)cc1
Reply: 2.23

---

# experimental.target: PDK1 enzyme (Homo sapiens, UniProt O15530)
# Sequence (O15530 whole entry): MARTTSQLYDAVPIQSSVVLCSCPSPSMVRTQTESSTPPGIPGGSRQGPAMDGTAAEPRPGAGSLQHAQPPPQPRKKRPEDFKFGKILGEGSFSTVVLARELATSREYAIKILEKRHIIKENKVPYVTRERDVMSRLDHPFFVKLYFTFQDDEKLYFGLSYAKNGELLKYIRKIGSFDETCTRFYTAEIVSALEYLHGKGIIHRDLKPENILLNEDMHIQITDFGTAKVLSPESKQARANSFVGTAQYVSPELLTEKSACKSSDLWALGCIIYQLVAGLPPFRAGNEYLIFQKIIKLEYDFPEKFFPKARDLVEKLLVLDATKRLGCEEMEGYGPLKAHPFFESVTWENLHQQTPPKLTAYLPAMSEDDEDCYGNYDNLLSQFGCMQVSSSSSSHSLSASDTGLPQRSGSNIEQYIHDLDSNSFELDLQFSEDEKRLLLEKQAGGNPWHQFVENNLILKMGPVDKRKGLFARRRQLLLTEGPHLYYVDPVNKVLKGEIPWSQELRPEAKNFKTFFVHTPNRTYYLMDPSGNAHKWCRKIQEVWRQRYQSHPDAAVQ
# experiment.notes: PDK1 3'-phosphoinositide-dependent kinase assay, phosphorylation of synthetic peptide (33P-ATP filtration)
# Assay type: biochemical
# run.parameters: Table 4; 0.01 mM ATP; read-out: PDK1 IC50
measure.name: IC50 (µM)
One number for each entry, in µM.

Some entries whose results are on file:
[[record]]
compound = "CCN(CC)CCOc1cccc(-c2cc(Nc3ccc(C(N)=O)cc3)nc3ncnn23)c1"
experimental_target = "PDK1 enzyme (Homo sapiens, UniProt O15530)"
reported = 7.6

[[record]]
compound = "CCCc1cc(OC)cc(-c2cc(Nc3ccc(C(N)=O)cc3)nc3ncnn23)c1"
experimental_target = "PDK1 enzyme (Homo sapiens, UniProt O15530)"
reported = 1.32

[[record]]
compound = "NC(=O)Cc1ccc(Nc2cc(-c3ccc4c(c3)OCO4)n3ncnc3n2)cc1"
experimental_target = "PDK1 enzyme (Homo sapiens, UniProt O15530)"
reported = 11.4

[[record]]
compound = "NC(=O)c1ccc(Nc2cc(-c3cccc(OCc4cccnc4)c3)n3ncnc3n2)cc1"
experimental_target = "PDK1 enzyme (Homo sapiens, UniProt O15530)"
reported = 1.73

[[record]]
compound = "NC(=O)c1ccc(Nc2cc(-c3cccc(OCC4CCCNC4)c3)n3ncnc3n2)cc1 (centres unmarked)"
experimental_target = "PDK1 enzyme (Homo sapiens, UniProt O15530)"
reported = 10.4


Hi! Can you tell me IC50 for each of these compounds?
1. CCCc1cc(OCCN(C)C)cc(-c2cc(Nc3ccc(C(N)=O)cc3)nc3ncnn23)c1
2. NC(=O)c1ccc(Nc2cc(-c3cccc(OCC4CCNCC4)c3)n3ncnc3n2)cc1
3. CN(C)CCOc1cccc(-c2cc(Nc3ccc(C(N)=O)cc3)nc3ncnn23)c1
4. CCc1cc(O)cc(-c2cc(Nc3ccc(C(=O)NCCN(CC)CC)cc3)nc3ncnn23)c1
5. O=S(=O)(Nc1nccs1)c1ccc(Nc2cc(-c3cccc(F)c3)n3ncnc3n2)cc1
6. CCN(CC)CCNC(=O)c1ccc(Nc2cc(-c3cccc(OCCN)c3)n3ncnc3n2)cc1

Reply:
1. 7.34
2. 14.6
3. 5.44
4. 1.6
5. 7.94
6. 0.81

---

Task for the reader: assign each of the following molecules its reported IC50.
# experimental.target: Chk1 (Homo sapiens)
# Sequence (O14757 1-476): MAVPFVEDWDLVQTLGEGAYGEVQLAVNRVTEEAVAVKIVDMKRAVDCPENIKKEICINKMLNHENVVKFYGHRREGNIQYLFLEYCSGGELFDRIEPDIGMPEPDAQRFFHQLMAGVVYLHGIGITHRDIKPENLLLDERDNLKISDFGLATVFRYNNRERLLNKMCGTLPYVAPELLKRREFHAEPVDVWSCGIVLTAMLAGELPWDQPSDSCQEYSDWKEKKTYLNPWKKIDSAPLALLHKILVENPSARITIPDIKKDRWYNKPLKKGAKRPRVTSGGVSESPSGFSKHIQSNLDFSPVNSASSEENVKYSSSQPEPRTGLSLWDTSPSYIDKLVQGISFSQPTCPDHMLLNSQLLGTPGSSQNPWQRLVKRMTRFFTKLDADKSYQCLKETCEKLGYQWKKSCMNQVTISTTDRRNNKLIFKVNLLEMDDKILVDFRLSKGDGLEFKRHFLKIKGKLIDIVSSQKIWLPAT
# experiment.notes: Chk1 kinase assay, phosphorylation of Chktide (33P-ATP filtration)
# Assay type: biochemical
# run.parameters: Table 2; 0.01 mM ATP; read-out: Chk1 IC50

Some entries whose results are on file:
[[record]]
molecule = "CC(C)c1cc(Nc2ccc(S(C)(=O)=O)cc2)n2ncnc2n1 [Example 78]"
experimental_target = "Chk1 (Homo sapiens)"
reported = "> 200 µM"

[[record]]
molecule = "CCN(CC)c1cc(Nc2ccc(S(=O)(=O)C(F)(F)F)cc2)n2ncnc2n1 [Example 70]"
experimental_target = "Chk1 (Homo sapiens)"
reported = "> 200 µM"

[[record]]
molecule = "CN(C)CCN(C)c1cc(Nc2ccc(S(C)(=O)=O)cc2)n2ncnc2n1 [Example 73]"
experimental_target = "Chk1 (Homo sapiens)"
reported = "> 200 µM"


Hi! Can you tell me IC50 for each of these molecules?
1. CC(C)(C)CNc1cc(Nc2ccc(S(C)(=O)=O)cc2)n2ncnc2n1 [Example 94]
2. CCCc1cc(Nc2ccc(S(C)(=O)=O)cc2)n2ncnc2n1 [Example 74]
3. CCN(CC)c1cc(Nc2ccc(S(=O)(=O)N(C)C)cc2)n2ncnc2n1 [Example 71]
4. N[C@H]1CC[C@H](Nc2cc(Nc3ccc(S(=O)(=O)c4ccccc4)cc3)n3ncnc3n2)CC1 [Example 98]
5. CS(=O)(=O)c1ccc(Nc2cc(NC3C4CC5CC(C4)CC3C5)nc3ncnn23)cc1 (centres unmarked) [Example 102]
6. CCN(CC)c1cc(Nc2ccc(S(=O)(=O)c3ccccc3)cc2)n2ncnc2n1 [Example 93]

Reply:
1. > 200 µM
2. > 200 µM
3. > 200 µM
4. 2.19 µM
5. 59.4 µM
6. > 200 µM

---

# experimental.target: Chk1 (Homo sapiens, UniProt O14757)
# experiment.notes: Chk1 kinase assay, phosphorylation of Chktide (33P-ATP filtration)
# Format: biochemical
# run.parameters: Table 4; 0.01 mM ATP; read-out: Chk1 IC50
measure.name: IC50 (µM)
One number for each entry, in µM.

[[record]]
compound = "CCN(CC)CCOc1cccc(-c2cc(Nc3ccc(C(N)=O)cc3)nc3ncnn23)c1 [Example 146]"
measure_name = "IC50"
reported = 20.8


Hi! Can you tell me IC50 for each of these compounds?
1. CNS(=O)(=O)Cc1ccc(Nc2cc(-c3cccc(F)c3)n3ncnc3n2)cc1 [Example 159]
2. Fc1cccc(-c2cc(Nc3cccc(Oc4ccccc4)c3)nc3ncnn23)c1 [Example 152]
3. CCc1cc(OCCN)cc(-c2cc(Nc3ccc(C(=O)NCCN(CC)CC)cc3)nc3ncnn23)c1 [Example 167]
4. NC(=O)COc1cccc(-c2cc(Nc3ccc(C(N)=O)cc3)nc3ncnn23)c1 [Example 157]
5. NCCOc1cccc(-c2cc(Nc3ccc(C(N)=O)cc3)nc3ncnn23)c1 [Example 151]
6. NC(=O)c1ccc(Nc2cc(-c3cccc(OCC4CCNCC4)c3)n3ncnc3n2)cc1 [Example 150]
7. CN(C)CCOc1cccc(-c2cc(Nc3ccc(C(N)=O)cc3)nc3ncnn23)c1 [Example 163]
8. CCc1cc(O)cc(-c2cc(Nc3ccc(C(=O)NCCN(CC)CC)cc3)nc3ncnn23)c1 [Example 164]

Reply:
22.6
32.7
3.39
6.05
3
19.7
9.82
0.66

# credit: patent US20070275961A1
